TESTED_SYSTEM: FGFR3 (Homo sapiens, UniProt P22607)
Construct: made in house; host or cells: E. coli (BL21-derived), T7 phage
Sequence (P22607 23-806): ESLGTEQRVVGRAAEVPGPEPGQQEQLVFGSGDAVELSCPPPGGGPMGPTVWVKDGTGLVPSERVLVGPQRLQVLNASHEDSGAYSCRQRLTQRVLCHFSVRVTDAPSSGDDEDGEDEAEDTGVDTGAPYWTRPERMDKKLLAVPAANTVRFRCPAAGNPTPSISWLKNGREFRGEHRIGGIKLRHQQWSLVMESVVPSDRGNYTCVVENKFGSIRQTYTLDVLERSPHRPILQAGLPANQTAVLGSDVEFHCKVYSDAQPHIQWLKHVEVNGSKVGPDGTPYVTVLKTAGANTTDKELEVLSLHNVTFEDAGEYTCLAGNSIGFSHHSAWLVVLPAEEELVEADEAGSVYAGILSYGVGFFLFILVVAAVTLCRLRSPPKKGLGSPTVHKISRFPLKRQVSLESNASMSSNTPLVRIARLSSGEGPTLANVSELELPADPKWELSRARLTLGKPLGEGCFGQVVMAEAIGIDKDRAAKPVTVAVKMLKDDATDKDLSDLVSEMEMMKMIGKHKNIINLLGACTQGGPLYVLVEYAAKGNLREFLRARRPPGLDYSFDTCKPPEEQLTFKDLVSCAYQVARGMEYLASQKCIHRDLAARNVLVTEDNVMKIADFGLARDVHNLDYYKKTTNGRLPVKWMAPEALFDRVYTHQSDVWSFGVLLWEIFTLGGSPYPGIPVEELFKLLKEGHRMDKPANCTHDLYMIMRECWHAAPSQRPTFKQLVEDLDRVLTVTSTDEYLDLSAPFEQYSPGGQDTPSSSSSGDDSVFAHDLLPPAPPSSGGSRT
TEST_METHOD_NOTES: Kinase binding assay (kinase-tagged T7 phage, affinity beads, qPCR), Kd
TEST_SETTINGS: kinase binding assay, 11-point 3-fold dilution series; read-out: FGFR3 (Kd nM)
ASSAY_ENDPOINT: Kd

Response field Kd (FGFR3 (Homo sapiens, UniProt P22607)) for item CC[C@@]1(N)CCN(c2ccc(-c3n[nH]c4ccc(O[C@H](C)c5c(Cl)cncc5Cl)cc34)nn2)C1 : 1 to 50 nM

Item: C[C@@H](Oc1ccc2[nH]nc(-c3ccc(N4CC[C@](N)(Cc5ccnn5C)C4)nn3)c2c1)c1c(Cl)cncc1Cl | System: FGFR3 (Homo sapiens, UniProt P22607) | Kd: 1 to 50 nM

New cases:
Measured Kd (FGFR3 (Homo sapiens, UniProt P22607)), entry C[C@@H](Oc1ccc2[nH]nc(-c3cnc(N4CC[C@](C)(N)C4)c(F)c3)c2c1)c1c(Cl)cncc1Cl : 1 to 50 nM

// assay FGFR3 (Homo sapiens, UniProt P22607), entry C[C@@H](Oc1ccc2[nH]nc(-c3cnc(N4CC[C@@](N)(c5ccnn5C)C4)c(F)c3)c2c1)c1c(Cl)cncc1Cl , Kd value = 1 to 50 nM

Recorded Kd for C[C@@H](Oc1ccc2[nH]nc(-c3cnc(N4CCC(N)(CCS(C)(=O)=O)CC4)c(F)c3)c2c1)c1c(Cl)cncc1Cl on FGFR3 (Homo sapiens, UniProt P22607) was 1 to 50 nM

So the reported Kd for C[C@@H](Oc1ccc2[nH]nc(-c3ccc(N4CC[C@](N)(Cc5ccn(C)n5)C4)nn3)c2c1)c1c(Cl)cncc1Cl , on FGFR3 (Homo sapiens, UniProt P22607), turned out to be 1 to 50 nM

Note to self: Kd of C[C@@H](O)CC1(N)CN(c2ncc(-c3n[nH]c4ccc(O[C@H](C)c5c(Cl)cncc5Cl)cc34)cc2F)C1 with FGFR3 (Homo sapiens, UniProt P22607) was 1 to 50 nM

* * *

TESTED_SYSTEM: FGFR3 (V555M) (Homo sapiens, UniProt P22607, V555M)
Construct: made in house; host or cells: E. coli (BL21-derived), T7 phage
Sequence (P22607 23-806 V555M): as the sequence (P22607 23-806) above, with V533M counted along it
TEST_METHOD_NOTES: Kinase binding assay (kinase-tagged T7 phage, affinity beads, qPCR), Kd
TEST_SETTINGS: V555M mutant; read-out: FGFR3 (V555M) (Kd nM)
ASSAY_ENDPOINT: Kd

GET /value?item= C[C@@H](O)CNC1(C)CN(c2ccc(-c3n[nH]c4ccc(O[C@H](C)c5c(Cl)cncc5Cl)cc34)cn2)C1 [Example 91] &field=Kd returns 1 to 50 nM

Record COc1cc2[nH]nc(-c3cnc(N4CC(C)(N5CC(C)(OC)C5)C4)c(C#N)c3)c2cc1O[C@H](C)c1c(Cl)cncc1Cl [Example 101] , field Kd: 1 to 50 nM

Quick note, Kd for COc1cc2[nH]nc(-c3cnc(N4CC(C)(NCC5CC5)C4)c(C#N)c3)c2cc1O[C@@H](C)c1c(Cl)cncc1Cl [Example 333] landed at 50 to 300 nM

Now take the following molecule into account.
Entry under test: CNC1(C)CN(c2ccc(-c3n[nH]c4ccc(O[C@H](C)c5c(Cl)cncc5Cl)cc34)cn2)C1 [Example 233] . Its Kd was 1 to 50 nM
